Molecular target: Cathepsin B (Homo sapiens, UniProt P07858)
Assay: Inhibition of recombinant human cathepsin B expressed in Escherichia coli BL21 (DE3) using zRR-AMC as substrate measured after 2 hrs by fluorescence plate reader assay
attribute.measured: Ki

- CC1=CC(C)=[N+]2C1=Cc1ccc(CCC(=O)N[C@@H](CC(C)C)C(=O)N[C@@H](CCCNC(=N)N)C(=O)N[C@@H](CO)C(=O)N[C@@H](CCCNC(=N)N)C(=O)COC(=O)c3c(C)cccc3C)n1[B-]2(F)F: 630 nM
- CC1=CC(C)=[N+]2C1=C(CCCc1cn(CCCCCC(=O)N[C@@H](CC(C)C)C(=O)N[C@H](C(=O)N[C@@H](CO)C(=O)N[C@@H](CCCNC(=N)N)C(=O)COC(=O)c3c(C)cccc3C)C(C)C)nn1)c1c(C)cc(C)n1[B-]2(F)F: 210 nM

Problem: Recorded Ki of CC1=CC(C)=[N+]2C1=C(CCCc1cn(CCCCCC(=O)N[C@@H](CC(C)C)C(=O)N[C@H](C(=O)N3CCCC[C@H]3C(=O)N[C@@H](CCCNC(=N)N)C(=O)COC(=O)c3c(C)cccc3C)C(C)C)nn1)c1c(C)cc(C)n1[B-]2(F)F , please.
Result: > 10000 nM

The reported numbers originate from ChEMBL document CHEMBL4354872.
